Recorded pEC50 for the following compounds
target: CD73 (Homo sapiens (Human), UniProt P21589); experiment: CD73 cellular assay (T cell stimulation assay); assay type: cell-based; conditions: human T cells, anti-CD3/CD28 stimulated, AMP + EHNA, 72 hours; read-out: EC50, CTG (CellTiter-Glo, cell proliferation)
Sequence (P21589 27-574): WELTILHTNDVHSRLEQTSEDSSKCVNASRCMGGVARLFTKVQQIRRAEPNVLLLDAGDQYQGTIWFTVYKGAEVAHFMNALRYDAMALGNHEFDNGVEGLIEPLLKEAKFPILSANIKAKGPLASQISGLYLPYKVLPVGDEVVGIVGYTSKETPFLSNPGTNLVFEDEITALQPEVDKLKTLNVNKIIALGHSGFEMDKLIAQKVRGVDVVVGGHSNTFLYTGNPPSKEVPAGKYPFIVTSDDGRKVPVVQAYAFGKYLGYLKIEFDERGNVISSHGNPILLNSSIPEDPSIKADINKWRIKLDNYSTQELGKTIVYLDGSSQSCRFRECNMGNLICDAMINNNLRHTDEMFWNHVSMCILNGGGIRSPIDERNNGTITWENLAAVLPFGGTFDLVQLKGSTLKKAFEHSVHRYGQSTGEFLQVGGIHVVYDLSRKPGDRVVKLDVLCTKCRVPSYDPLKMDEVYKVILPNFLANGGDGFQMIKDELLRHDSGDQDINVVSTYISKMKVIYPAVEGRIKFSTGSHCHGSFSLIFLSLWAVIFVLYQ
Answer as the number alone; pEC50 is minus log10 of concentration in mol/L.

1. O=P(O)(O)CP(=O)(O)OC[C@H]1O[C@@H](n2cnc3c(N4CCC5(CCCCC5)C4)nc(Cl)nc32)C(O)C1O (stereo partly drawn) [Compound b, reference compound]
8.12
2. O=P(O)(O)CP(=O)(O)OC[C@H]1O[C@@H](n2cnc3c(N4CC5(CCc6ccccc65)C4)nc(Cl)nc32)C(O)C1O (stereo partly drawn)
8.50

Now consider the entry below.
Exercise: What value of pEC50 has been recorded for this entry: O=P(O)(O)CP(=O)(O)OC[C@H]1O[C@@H](n2cnc3c(N4CCC(c5ccccc5)(c5ccccc5)C4)nc(Cl)nc32)C(O)C1O (stereo partly drawn)
Key: 8.39
